target: PDZRN4_1, Q6ZMN7; assay: holdup assay; parameters: key: below the threshold = too weak to quantify, mostly under pKd 3.1 to 4; conditions: plain residues with an end cap or a label only (N-terminal biotin on a linker: ado-ado)
Sequence (Q6ZMN7 213-318): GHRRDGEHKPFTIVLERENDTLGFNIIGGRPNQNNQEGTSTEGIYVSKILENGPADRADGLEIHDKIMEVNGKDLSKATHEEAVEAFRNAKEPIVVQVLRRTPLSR
quantity_measured: pKd

NNNVVKVDSV [MTNR1A, P48039]    below the threshold
IDESKKEWLI [CNTNAP2, Q9UHC6]    below the threshold
TRKRSGEAAV [PFKM, P08237]    below the threshold
APIAGFSSFV [SDK2, Q58EX2]    3.79
GEDRSPPTAL [MKNK1, Q9BUB5]    below the threshold
SFISKKEWYV [NECTIN1, Q15223]    below the threshold
LPAVCYDIDI [PTTG2, Q9NZH5]    below the threshold

Now consider a different binder.
If you can, please state the reported pKd value of LESTTVGTSV [KARS1, Q15046] .
4.29
